# Tested on: MDCK
# assay overview: Cytotoxicity against MDCK cells assessed as reduction in cell viability at 100 uM after 40 hrs by CellTiter-Glo assay
# Type: cell-based, Canis lupus familiaris
# experimental context: dog

{"smiles text": "COC(=O)C1=C[C@H](n2cc(CNC(=O)[C@]34CC[C@@H](C)[C@H](C)[C@H]3C3=CC[C@@H]5[C@@]6(C)CC[C@H](O)C(C)(C)[C@@H]6CC[C@@]5(C)[C@]3(C)CC4)nn2)[C@@H](NC(C)=O)[C@H]([C@H](OC(C)=O)[C@@H](COC(C)=O)OC(C)=O)O1", "Activity": "Toxic"}
{"smiles text": "COC(=O)C1=C[C@H](n2cc(CNC(=O)[C@]34CC[C@@H](C)[C@H](C)[C@H]3C3=CC[C@@H]5[C@@]6(C)CC[C@H](O)C(C)(C)[C@@H]6CC[C@@]5(C)[C@]3(C)CC4)nn2)[C@@H](NC(C)=O)[C@H]([C@H](O)[C@H](O)CO)O1", "Activity": "Toxic"}
